# credit: patent US9000045B2

molecular target: CETP (Homo sapiens, UniProt P11597); assay: Ex vivo CETP activity inhibitory effect of plasma from transgenic mice; parameters: from tissue; host or cells: plasma of transgenic mice carrying the human CETP gene; conditions: mouse, po; 10 mg/kg, p.o.; 6 hours after administration; transgenic mice with human CETP gene; read-out: CETP activity inhibitory rate in plasma from transgenic mouse
Sequence (P11597 18-493): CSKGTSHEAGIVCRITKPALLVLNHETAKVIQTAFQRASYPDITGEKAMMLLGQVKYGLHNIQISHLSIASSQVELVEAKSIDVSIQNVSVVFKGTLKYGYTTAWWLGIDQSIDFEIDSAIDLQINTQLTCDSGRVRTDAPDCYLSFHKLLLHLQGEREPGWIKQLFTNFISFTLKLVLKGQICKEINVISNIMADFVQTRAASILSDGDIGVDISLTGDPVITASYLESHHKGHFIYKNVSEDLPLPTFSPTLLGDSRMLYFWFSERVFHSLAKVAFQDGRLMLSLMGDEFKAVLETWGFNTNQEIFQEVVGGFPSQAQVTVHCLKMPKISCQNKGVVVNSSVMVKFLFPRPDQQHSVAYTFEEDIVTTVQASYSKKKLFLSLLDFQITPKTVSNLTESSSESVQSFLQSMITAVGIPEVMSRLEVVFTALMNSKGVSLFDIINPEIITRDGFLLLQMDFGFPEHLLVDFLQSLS
Overview of reported inhibition at 10 mg/kg across a group of molecules:
Reported Property: inhibition at 10 mg/kg (%)

>>> numeric_readout("CC(C)CCC1(C(=O)Nc2ccccc2SC(=O)COc2ccccc2)CCCCC1")
17
>>> numeric_readout("CC(=O)N[C@@H](CCC(N)=O)C(=O)Sc1ccccc1NC(=O)C1(CCC(C)C)CCCCC1")
18
>>> numeric_readout("CC(C)CCC1(C(=O)Nc2ccccc2SC(=O)COc2ccc(Cl)cc2)CCCCC1")
27
>>> numeric_readout("Cc1ccc(S)c(NC(=O)C2(CCC(C)C)CCCCC2)c1")
22
>>> numeric_readout("CC(C)CCC1(C(=O)Nc2cc(F)ccc2SC(=O)C(C)(C)C)CCCCC1")
14

====

molecular target: CETP (Homo sapiens, UniProt P11597); assay: In vitro CETP activity inhibitory effect in whole plasma; settings: plasma from healthy subjects containing [3H]CE-HDL3, incubated 4 hours at 37° C.; read-out: CETP activity inhibition in whole plasma IC50
Binarize IC50 at 20 µM; below is 1, at or above is -1.

>>> qualitative_label("CC(C)CCC1(C(=O)Nc2ccc(F)cc2SC(=O)C(C)(C)C)CCCCC1 [Example 81]")
-1
>>> qualitative_label("CC(C)[C@H]1CC[C@H](C(=O)Nc2cc(Cl)c(Cl)cc2SC(=O)C(C)(C)C)CC1 [Example 66-32]")
-1
>>> qualitative_label("CC(C)CCC1(C(=O)Nc2cc(Cl)c(Cl)cc2SC(=O)c2cccnc2)CCCCC1 [Example 25-77]")
1
>>> qualitative_label("CC(C)CCC1(C(=O)Nc2cc(Cl)c(Cl)cc2SC(=O)C2CCCCC2)CCCCC1 [Example 25-82]")
1
>>> qualitative_label("COc1ccc(S)c(NC(=O)C2(C)CCCCC2)c1 [Example 19]")
-1
>>> qualitative_label("CC(C)(C)C(=O)Sc1cc(Cl)c(Cl)cc1NC(=O)C1C(C)(C)C1(C)C [Example 66-17]")
1
>>> qualitative_label("CC(C)CCC1(C(=O)Nc2ccccc2SC(=O)/C=C/c2ccccc2)CCCCC1 [Example 25-59]")
1
>>> qualitative_label("CC(C)(C)C(=O)Sc1cc(Cl)c(Cl)cc1NC(=O)[C@]12CCCC[C@@H]1CCCC2 [Example 66-22]")
1

====

Biological target: CETP (Homo sapiens)
Assay: Ex vivo CETP activity inhibitory effect of plasma from transgenic mice
Parameters: from tissue; host or cells: plasma of transgenic mice carrying the human CETP gene
Details: mouse, po; 10 mg/kg, p.o.; 6 hours after administration; transgenic mice with human CETP gene; read-out: CETP activity inhibitory rate in plasma from transgenic mouse
Description: Potassium bromide (KBr) was added to the plasma of healthy subjects (40 ml) to adjust specific gravity to d=1.125 g/ml. Density gradient centrifugation (227,000×g, 4° C., 17 hours) was conducted to obtain a fraction with specific gravity d>1.125 g/ml (HDL3 fraction). The fraction thus obtained was dialyzed against a PBS solution [10 mM Na2HPO4/10 mM NaH2PO4/0.15 M NaCl/1 mM EDTA (pH 7.4)]. […]
Overview of reported inhibition at 10 mg/kg across a group of molecules:
Reported Property: inhibition at 10 mg/kg

>>> result("CC(=O)Sc1ccccc1NC(=O)C1(CCC(C)C)CCCCC1 [Example 25]")
"19%"
>>> result("CSCC[C@H](NC(C)=O)C(=O)Sc1ccccc1NC(=O)C1(CCC(C)C)CCCCC1 [Example 25-57]")
"18%"
>>> result("CC(C)CCC1(C(=O)Nc2ccccc2SC(=O)/C=C/c2ccccc2)CCCCC1 [Example 25-59]")
"20%"
>>> result("CC(C)CCC1(C(=O)Nc2ccccc2SC(=O)C(C)(C)O)CCCCC1 [Example 46]")
"22%"
>>> result("CCC(=O)Sc1ccccc1NC(=O)C1(CCC(C)C)CCCCC1 [Example 38]")
"15%"
>>> result("COCC(=O)Sc1ccccc1NC(=O)C1(CCC(C)C)CCCCC1 [Example 37]")
"18%"

====

molecular target: UniProt P11597; assay: In vitro CETP activity inhibitory effect in whole plasma; details: plasma from healthy subjects containing [3H]CE-HDL3, incubated 4 hours at 37° C.; read-out: CETP activity inhibition in whole plasma IC50
Reported Property: IC50 (µM)

>>> numeric_readout("CC1(C(=O)Nc2ccccc2SC(=O)CC2CCCCC2)CCCCC1 [Example 25-16]")
41
>>> numeric_readout("CCNC(=O)Sc1cc(Cl)c(Cl)cc1NC(=O)C1(CCC(C)C)CCCCC1 [Example 25-104]")
9
>>> numeric_readout("CC(C)CCC1(C(=O)Nc2cc(Cl)c(Cl)cc2SC(=O)C2CCN(C)CC2)CCCCC1 [Example 25-78]")
11
>>> numeric_readout("CC(=O)N[C@@H](Cc1ccccc1)C(=O)Sc1ccccc1NC(=O)C1(C)CCCCC1 [Example 25-32]")
20
>>> numeric_readout("CC(C)CCC1(C(=O)Nc2ccccc2SC(=O)Nc2ccccc2)CCCC1 [Example 25-106]")
10
>>> numeric_readout("CC(=O)NC1(C(=O)Sc2ccccc2NC(=O)C2(CCC(C)C)CCCCC2)CCCCC1 [Example 25-56]")
7
>>> numeric_readout("CC(C)CCC1(C(=O)Nc2ccccc2SSc2ccccc2NC(=O)C2(CCC(C)C)CCCC2)CCCC1 [Example 7]")
2
>>> numeric_readout("CC(C)CCC1(C(=O)Nc2cc(Cl)ccc2SC(=O)C(C)(C)C)CCCCC1 [Example 76]")
18
>>> numeric_readout("Cc1ccc(S)c(NC(=O)C2(CCC(C)C)CCCCC2)c1 [Example 22]")
56
>>> numeric_readout("CC(C)CCC1(C(=O)Nc2cc(Cl)c(Cl)cc2S)CCCCC1 [Example 20]")
16
>>> numeric_readout("COC(=O)Sc1ccccc1NC(=O)C1(CCC(C)C)CCCCC1 [Example 54]")
12
>>> numeric_readout("CC(C)CCC1(C(=O)Nc2ccccc2SC(=O)NC(C)C)CCCCC1 [Example 25-98]")
8
>>> numeric_readout("COc1ccc(NC(=O)Sc2ccccc2NC(=O)C2(CCC(C)C)CCCC2)cc1 [Example 25-107]")
11
>>> numeric_readout("CC(C)CCC1(C(=O)Nc2ccccc2SC(=O)C(C)(C)C)CCCC1 [Example 48]")
49
>>> numeric_readout("CC(C)CCC1(C(=O)Nc2cc(F)c(F)cc2SC(=O)C(C)(C)C)CCCCC1 [Example 80]")
6
>>> numeric_readout("CC(=O)Sc1ccccc1NC(=O)C1(CCC(C)C)CCCC1 [Example 49]")
6
>>> numeric_readout("CC(=O)Sc1ccccc1NC(=O)C1(CCC(C)C)CCCCC1 [Example 25]")
11
>>> numeric_readout("CC1(C(=O)Nc2cc(C(F)(F)F)ccc2SC(=O)Cc2ccccc2)CCCCC1 [Example 25-66]")
35
>>> numeric_readout("COC(=O)Sc1cc(Cl)c(Cl)cc1NC(=O)C1(CCC(C)C)CCCCC1 [Example 25-91]")
22

====

target: CETP (Homo sapiens); assay: In vitro CETP activity inhibitory effect in whole plasma; conditions: plasma from healthy subjects containing [3H]CE-HDL3, incubated 4 hours at 37° C.; read-out: CETP activity inhibition in whole plasma IC50
Reported Property: log10 of IC50 (log10 of the value in µM)

>>> numeric_readout("CC(C)(C)C(=O)Nc1ccccc1SC(=O)Cc1ccccc1 [Example 31]")
1.51
>>> numeric_readout("CC(C)CCC1(C(=O)Nc2cc(F)ccc2SC(=O)C(C)(C)C)CCCCC1 [Example 79]")
1.78
>>> numeric_readout("CC(C)CCC1(C(=O)Nc2cc(Cl)c(Cl)cc2SC(=O)C(C)(C)C)CCC1 [Example 73]")
1.57
>>> numeric_readout("CC(C)CCC1(C(=O)Nc2ccccc2SC(=O)NC(C)(C)C)CCCC1 [Example 25-105]")
0.78
>>> numeric_readout("CC1(C(=O)Nc2cc(Cl)c(Cl)cc2SC(=O)[C@@H](N)Cc2ccccc2)CCCCC1 [Example 66-12]")
1.23
>>> numeric_readout("CC(C)CCC1(C(=O)Nc2cc(Cl)c(Cl)cc2S)CCCC1 [Example 21]")
0.95
>>> numeric_readout("CC(C)(C)C(=O)Sc1cc(Cl)c(Cl)cc1NC(=O)C(C)(C)C1CCCCC1 [Example 66-41]")
1.40
>>> numeric_readout("CC(C)(C)C(=O)Sc1cc(Cl)c(Cl)cc1NC(=O)C1(C2CCCCC2)CCCCC1 [Example 66-18]")
1.04
>>> numeric_readout("CC(C)CCC1(C(=O)Nc2ccccc2SC(=O)COc2ccccc2)CCCCC1 [Example 39]")
1.04
>>> numeric_readout("CC(C)CCC1(C(=O)Nc2cc(Cl)c(Cl)cc2SC(=O)c2cccnc2)CCCC1 [Example 25-87]")
0.78
>>> numeric_readout("CC(C)CCC1(C(=O)Nc2ccccc2SC(=O)C2CC2)CCCCC1 [Example 42]")
0.95
>>> numeric_readout("CCCC1(C(=O)Nc2cc(Cl)c(Cl)cc2SC(=O)C(C)(C)C)CCCCC1 [Example 66-16]")
0.90
>>> numeric_readout("CC(C)CCC1(C(=O)Nc2ccccc2SC(=O)C2CCCCC2)CCCC1 [Example 25-64]")
1.30
>>> numeric_readout("CC(C)CCC1(C(=O)Nc2cc([N+](=O)[O-])ccc2SC(=O)C(C)(C)C)CCCCC1 [Example 74]")
1.15
>>> numeric_readout("CC(C)CCC1(C(=O)Nc2cc(C#N)ccc2SC(=O)C(C)(C)C)CCCCC1 [Example 75]")
1.40
>>> numeric_readout("CC(C)(C)CC1(C(=O)Nc2cc(Cl)c(Cl)cc2SC(=O)C(C)(C)C)CCCCC1 [Example 66-46]")
1.54
>>> numeric_readout("CC(C)CCC1(C(=O)Nc2ccccc2SC(=O)c2ccccc2Cl)CCCCC1 [Example 25-49]")
1.32
>>> numeric_readout("CC(C)CCC1(C(=O)Nc2ccccc2SC(=O)c2ccc([N+](=O)[O-])cc2)CCCCC1 [Example 25-46]")
0.95
>>> numeric_readout("CC(C)(C)C(=O)Sc1cc(Cl)c(Cl)cc1NC(=O)C1(CC2CCCCC2)CCCCC1 [Example 71]")
0.60
>>> numeric_readout("CC(C)(C)C(=O)Sc1cc(Cl)c(Cl)cc1NC(=O)[C@H]1CC[C@H](C)CC1 [Example 66-30]")
1.28
>>> numeric_readout("CCNC(=O)Sc1cc(Cl)c(Cl)cc1NC(=O)C1(C)CCCCC1 [Example 66-53]")
1.18
>>> numeric_readout("CC(C)C1(C(=O)Nc2ccccc2S)CCCCC1 [Example 14]")
0.90
>>> numeric_readout("CC(C)CCC1(C(=O)Nc2cc(Cl)c(Cl)cc2SSc2cc(Cl)c(Cl)cc2NC(=O)C2(CCC(C)C)CCCC2)CCCC1 [Example 82-1]")
0.70
